Assay target: T1, human interleukin 12 (p70 heterodimer of p35 and p40) (human, UniProt P29459 23-219; P29460 23-328)
T1 construct: Recombinant human IL-12; also called hIL-12; IL-12
T1 sequence (looked up) 1: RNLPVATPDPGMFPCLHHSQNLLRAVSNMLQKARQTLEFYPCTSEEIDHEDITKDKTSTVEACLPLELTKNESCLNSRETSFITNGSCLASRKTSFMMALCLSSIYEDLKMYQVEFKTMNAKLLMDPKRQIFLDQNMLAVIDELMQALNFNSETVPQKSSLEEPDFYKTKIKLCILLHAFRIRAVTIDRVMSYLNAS
T1 sequence (looked up) 2: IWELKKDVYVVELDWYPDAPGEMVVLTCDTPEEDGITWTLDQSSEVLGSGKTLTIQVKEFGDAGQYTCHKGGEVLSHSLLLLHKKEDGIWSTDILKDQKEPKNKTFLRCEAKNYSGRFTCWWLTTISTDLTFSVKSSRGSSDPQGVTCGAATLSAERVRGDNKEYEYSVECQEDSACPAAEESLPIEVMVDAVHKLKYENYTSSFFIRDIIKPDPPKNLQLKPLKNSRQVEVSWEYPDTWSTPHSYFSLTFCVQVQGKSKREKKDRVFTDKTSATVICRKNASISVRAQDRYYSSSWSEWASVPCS
Assay name: SPR (BIAcore), off-rate
Sorting guide: entries reporting koff beneath 0.0006 s⁻¹ go in the t pile, the rest go in the f pile.

* SEQ ID NO: 527 (Y61, Y at L53) (antibody, V domains shown) VH: QVQLVQSGGGVVQPGRSLRLSCAASGFTFSSYGMHWVRQAPGKGLEWVAFIRYDGSNKYYADSVKGRFTISRDNSKNTLYLQMKSLRAEDTAVYYCKTHGSHDNWGQGTMVTVSS VL: SYVLTQPPSVSGTPGQRVTISCSGGRSNIGSNTVKWYQQLPGTAPKLLIYGNDYRPSGVPDRFSGSKSGTSASLAITGVQAEDEADYYCQSYDRGTHPALLFGTGTKVTVLG | f
* SEQ ID NO: 520 (Y61, M at L50) (antibody, V domains shown) VH: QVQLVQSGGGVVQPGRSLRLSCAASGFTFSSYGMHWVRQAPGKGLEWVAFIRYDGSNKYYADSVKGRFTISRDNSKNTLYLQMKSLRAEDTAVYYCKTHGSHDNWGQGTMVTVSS VL: SYVLTQPPSVSGTPGQRVTISCSGGRSNIGSNTVKWYQQLPGTAPKLLIYMNDQRPSGVPDRFSGSKSGTSASLAITGVQAEDEADYYCQSYDRGTHPALLFGTGTKVTVLG | f
* SEQ ID NO: 514 (Y61, N at L50) (antibody, V domains shown) VH: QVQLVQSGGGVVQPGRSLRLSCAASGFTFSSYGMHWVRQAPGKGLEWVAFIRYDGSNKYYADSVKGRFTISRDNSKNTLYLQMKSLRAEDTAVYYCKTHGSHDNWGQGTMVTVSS VL: SYVLTQPPSVSGTPGQRVTISCSGGRSNIGSNTVKWYQQLPGTAPKLLIYNNDQRPSGVPDRFSGSKSGTSASLAITGVQAEDEADYYCQSYDRGTHPALLFGTGTKVTVLG | t
* SEQ ID NO: 508 (Y61, C at L50) (antibody, V domains shown) VH: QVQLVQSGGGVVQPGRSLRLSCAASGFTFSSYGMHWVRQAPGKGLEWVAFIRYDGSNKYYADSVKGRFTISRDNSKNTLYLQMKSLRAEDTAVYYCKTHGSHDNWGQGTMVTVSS VL: SYVLTQPPSVSGTPGQRVTISCSGGRSNIGSNTVKWYQQLPGTAPKLLIYCNDQRPSGVPDRFSGSKSGTSASLAITGVQAEDEADYYCQSYDRGTHPALLFGTGTKVTVLG | t
* SEQ ID NO: 523 (Y61, P at L50) (antibody, V domains shown) VH: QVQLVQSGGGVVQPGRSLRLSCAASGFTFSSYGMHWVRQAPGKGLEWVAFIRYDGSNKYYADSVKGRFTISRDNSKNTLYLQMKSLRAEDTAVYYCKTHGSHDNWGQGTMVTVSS VL: SYVLTQPPSVSGTPGQRVTISCSGGRSNIGSNTVKWYQQLPGTAPKLLIYPNDQRPSGVPDRFSGSKSGTSASLAITGVQAEDEADYYCQSYDRGTHPALLFGTGTKVTVLG | t
* SEQ ID NO: 532 (Y61, I at L53) (antibody, V domains shown) VH: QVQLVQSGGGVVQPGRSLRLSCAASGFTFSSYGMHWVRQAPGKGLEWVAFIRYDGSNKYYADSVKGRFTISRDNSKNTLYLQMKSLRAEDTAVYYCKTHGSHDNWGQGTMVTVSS VL: SYVLTQPPSVSGTPGQRVTISCSGGRSNIGSNTVKWYQQLPGTAPKLLIYGNDIRPSGVPDRFSGSKSGTSASLAITGVQAEDEADYYCQSYDRGTHPALLFGTGTKVTVLG | f
* SEQ ID NO: 524 (Y61, W at L50) (antibody, V domains shown) VH: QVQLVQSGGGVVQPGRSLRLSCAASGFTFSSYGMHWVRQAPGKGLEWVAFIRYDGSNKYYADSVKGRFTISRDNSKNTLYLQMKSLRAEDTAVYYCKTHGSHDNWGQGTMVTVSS VL: SYVLTQPPSVSGTPGQRVTISCSGGRSNIGSNTVKWYQQLPGTAPKLLIYWNDQRPSGVPDRFSGSKSGTSASLAITGVQAEDEADYYCQSYDRGTHPALLFGTGTKVTVLG | t
* SEQ ID NO: 518 (Y61, A at L50) (antibody, V domains shown) VH: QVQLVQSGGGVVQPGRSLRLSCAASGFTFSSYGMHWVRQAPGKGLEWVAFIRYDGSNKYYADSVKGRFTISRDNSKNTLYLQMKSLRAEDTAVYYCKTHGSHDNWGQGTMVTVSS VL: SYVLTQPPSVSGTPGQRVTISCSGGRSNIGSNTVKWYQQLPGTAPKLLIYANDQRPSGVPDRFSGSKSGTSASLAITGVQAEDEADYYCQSYDRGTHPALLFGTGTKVTVLG | t
